- procedure_text: soluble on expression in E. coli; label from the status in PepcDB or PDB records

>  <sequence_text>
MGHHHHHHSHSHTIRDLKYTIENPRHFVDSHHQKPVNAIIEHVRDGSVVRALLLPDYYLVTVMLSGIKCPTFRREADGSETPEPFAAEAKFFTESRLLQRDVQIILESCHNQNILGTILHPNGNITELLLKEGFARCVDWSIAVYTRGAEKLRAAERFAKERRLRIWRDYVAPTANLDQK

>  <soluble on expression in E. coli>
not soluble

$$$$
>  <sequence_text>
MAVRFASLGSGSDGNALLVESTDGTTSTRILLDCGFGIRETVRRLERLGCAPASLDAILVTHEHGDHIGSAYAFAAKYSVPVWTSHGTYRATASLRGADRAAVRFCRADDAFSIGDLRILPYTVPHDAREPLQFIFDDGARRLGVLTDAGMSTEYLCGHLTGLHAFVLECNHDREMLANSAYPWSLKQRIGGDFGHLANDIAAAILARVRHDGLHTVVAAHLSKQNNTPELAAAAIASALGVPAGDVPIADQEAGLGWQAVLEHHHHHH

>  <soluble on expression in E. coli>
not soluble

$$$$
>  <sequence_text>
MIPNFRGFNKKTKKMYSIDGFKSSERKIYRCSLADDEFRSGRLETFHFVEDNLVEKCNRPPERFYRQKQVRKSDRRLMARQ

>  <soluble on expression in E. coli>
not soluble

$$$$

Provenance of the data: the DeepSol protein solubility set
